Tested on: DNA
testDescription: Binding affinity to calf thymus DNA
Type: nucleic-acid assay
measurementConditions: Bos taurus
quantityKind: ΔTm (°C)
All answers are understood in °C, so give the number only.

# example entries with known answers
> print(dat)
                            smilesstructure  targetorsystem  quantitykind  unit  measured
1  CN(C)CCN1C(=O)c2cccc3c2c(cc2[nH]c(-c4ccc(C(F)(F)F)cc4)nc23)C1=O             DNA           ΔTm    °C       4.8
2  CN(C)CCN1C(=O)c2cccc3c2c(cc2[nH]c(-c4ccccc4)nc23)C1=O             DNA           ΔTm    °C       7.2
3  CN(C)CCN1C(=O)c2cccc3c2c(cc2[nH]c(-c4ccc[nH]4)nc23)C1=O             DNA           ΔTm    °C       5.7
4  CN(C)CCN1C(=O)c2cccc3c2c(cc2[nH]c(-c4ccncc4)nc23)C1=O             DNA           ΔTm    °C       4.8

Now take the following molecule into account.
Which ΔTm value belongs to "COc1ccc(-c2nc3c(cc4c5c(cccc53)C(=O)N(CCN(C)C)C4=O)[nH]2)cc1OC" ?
13.3

====

Test system: P388
testDescription: Growth inhibition of mouse P388 cells by MTT assay
Assay type: functional, cell-based
Measured IC50, listed per entry.
Express the result in nM but write the number alone.

Some compounds with known IC50 results, for comparison:
> print(dat)
                                   compound  unit  measured
1  CCOc1ccc(-c2nc3c(cc4c5c(cccc53)C(=O)N(CCN(C)C)C4=O)[nH]2)cc1    nM      2480
2  CN(C)CCN1C(=O)c2cccc3c2c(cc2[nH]c(-c4ccc(O)cc4)nc23)C1=O    nM      1100
3  CN(C)CCN1C(=O)c2cccc3c2c(cc2[nH]c(-c4ccncc4)nc23)C1=O    nM      5650

Field: IC50 (P388). Entry: "CN(C)CCN1C(=O)c2cccc3c2c(cc2[nH]c(-c4ccoc4)nc23)C1=O"
710

What reported IC50 corresponds to "CN(C)CCN1C(=O)c2cccc3c2c(cc2[nH]c(-c4ccco4)nc23)C1=O" on P388?
650

Param readout = IC50; param system = P388; param query = "COc1ccc(-c2nc3c(cc4c5c(cccc53)C(=O)N(CCN(C)C)C4=O)[nH]2)cc1" ; response: value
3720

Checklist item: IC50 tested on P388, entry "CN(C)CCN1C(=O)c2cccc3c2c(cc2[nH]c(-c4ccc(C(F)(F)F)cc4)nc23)C1=O" , value?
710

P388 / IC50 / CN(C)CCN1C(=O)c2cccc3cc(N)cc(c23)C1=O [AMONAFIDE] : value?
4560

What value of IC50 on P388 does "COc1ccc(-c2nc3c(cc4c5c(cccc53)C(=O)N(CCN(C)C)C4=O)[nH]2)cc1OC" have?
1070

Give recorded IC50 with P388 for the following compound: "CN(C)CCN1C(=O)c2cccc3c2c(cc2[nH]c(-c4ccccn4)nc23)C1=O"
770

Observed IC50 on P388 for "COc1cc(-c2nc3c(cc4c5c(cccc53)C(=O)N(CCN(C)C)C4=O)[nH]2)ccc1O" , please.
1920

====

Tested on: HL-60
testDescription: Growth inhibition of human HL60 cells by MTT assay
Format: functional, cell-based
Ranges used to classify IC50: range 1 (below 1000 nM), range 2 (1000 nM to below 5000 nM), range 3 (5000 nM or more)

> print(dat)
                                   compound  targetorsystem  classification
1  CN(C)CCN1C(=O)c2cccc3c2c(cc2[nH]c(-c4ccc(N(C)C)cc4)nc23)C1=O           HL-60         range 2
2  COc1ccc(-c2nc3c(cc4c5c(cccc53)C(=O)N(CCN(C)C)C4=O)[nH]2)cc1           HL-60         range 1
3  COc1cc(-c2nc3c(cc4c5c(cccc53)C(=O)N(CCN(C)C)C4=O)[nH]2)ccc1O           HL-60         range 3
4  CN(C)CCN1C(=O)c2cccc3c2c(cc2[nH]c(-c4ccc[nH]4)nc23)C1=O           HL-60         range 2

Then there is this compound:
Exam item: assign CN(C)CCN1C(=O)c2cccc3cc(N)cc(c23)C1=O [AMONAFIDE] to the correct category.
range 2

====

Readings of ΔTm for the listed compounds
System: DNA
testDescription: Binding affinity to calf thymus DNA
Format: nucleic-acid assay
measurementConditions: Bos taurus
Please state the number and follow it with the unit.

Example compounds with recorded ΔTm:
> print(dat)
                            smilesstructure  targetorsystem  quantitykind  measured
1  CN(C)CCN1C(=O)c2cccc3c2c(cc2[nH]c(-c4cccs4)nc23)C1=O             DNA           ΔTm    6.9 °C
2  COc1ccc(-c2nc3c(cc4c5c(cccc53)C(=O)N(CCN(C)C)C4=O)[nH]2)cc1             DNA           ΔTm      7 °C

Enter reported ΔTm observed with DNA for "CN(C)CCN1C(=O)c2cccc3c2c(cc2[nH]c(-c4ccc(Cl)cc4)nc23)C1=O"
7.1 °C

====

// values below are reported pIC50
System: HL-60
testDescription: Growth inhibition of human HL60 cells by MTT assay
Assay type: functional, cell-based
The meaning of pIC50 here: minus log10 of the concentration in molar units.

> print(dat)
                            smilesstructure  measured
1  CCOc1ccc(-c2nc3c(cc4c5c(cccc53)C(=O)N(CCN(C)C)C4=O)[nH]2)cc1      5.34
2  CN(C)CCN1C(=O)c2cccc3c2c(cc2[nH]c(-c4cccn4C)nc23)C1=O      5.44
3  CN(C)CCN1C(=O)c2cccc3c2c(cc2[nH]c(-c4ccncc4)nc23)C1=O      5.58
4  Cc1ccc(-c2nc3c(cc4c5c(cccc53)C(=O)N(CCN(C)C)C4=O)[nH]2)cc1      5.98

# input compound: "CN(C)CCN1C(=O)c2cccc3c2c(cc2[nH]c(-c4ccoc4)nc23)C1=O" ; wanted: its pIC50
5.28

Dear colleague, I am looking for the recorded pIC50 of the following compound: "CN(C)CCN1C(=O)c2cccc3c2c(cc2[nH]c(-c4ccc(C(F)(F)F)cc4)nc23)C1=O"
5.31

Bench note: what pIC50 did "CN(C)CCN1C(=O)c2cccc3c2c(cc2[nH]c(-c4ccccc4)nc23)C1=O" show?
6.07

Any idea what pIC50 was measured for "CN(C)CCN1C(=O)c2cccc3c2c(cc2[nH]c(-c4ccccn4)nc23)C1=O" ?
6.52

What value of pIC50 has been reported for the following compound? "CN(C)CCN1C(=O)c2cccc3c2c(cc2[nH]c(-c4cccs4)nc23)C1=O"
6.23

====

Reported pIC50 values are given for each entry in this list.
Tested on: HL-60
testDescription: Growth inhibition of human HL60 cells by MTT assay
Assay type: functional, cell-based
Note on pIC50: it is the negative log10 of concentration, concentration in mol/L.

Sample records with pIC50:
> print(dat)
                            smilesstructure  quantitykind  measured
1  CN(C)CCN1C(=O)c2cccc3c2c(cc2[nH]c(-c4cccnc4)nc23)C1=O         pIC50      5.88
2  CN(C)CCN1C(=O)c2cccc3c2c(cc2[nH]c(-c4ccc(Cl)cc4)nc23)C1=O         pIC50      5.48

// map "CN(C)CCN1C(=O)c2cccc3c2c(cc2[nH]c(-c4ccc(O)cc4)nc23)C1=O" to recorded pIC50 (system: HL-60)
4.64

Lab note: need pIC50 with HL-60 for entry "CN(C)CCN1C(=O)c2cccc3c2c(cc2[nH]c(-c4ccsc4)nc23)C1=O" , please look it up.
6.24

// map "COc1ccc(-c2nc3c(cc4c5c(cccc53)C(=O)N(CCN(C)C)C4=O)[nH]2)cc1OC" to recorded pIC50 (system: HL-60)
4.98

Enter reported pIC50 observed with HL-60 for "CN(C)CCN1C(=O)c2cccc3c2c(cc2[nH]c(-c4ccco4)nc23)C1=O"
5.20
